- target: MSI1 full-length (mouse, UniProt Q61474 1-362)
- Sequence (Q61474 whole entry): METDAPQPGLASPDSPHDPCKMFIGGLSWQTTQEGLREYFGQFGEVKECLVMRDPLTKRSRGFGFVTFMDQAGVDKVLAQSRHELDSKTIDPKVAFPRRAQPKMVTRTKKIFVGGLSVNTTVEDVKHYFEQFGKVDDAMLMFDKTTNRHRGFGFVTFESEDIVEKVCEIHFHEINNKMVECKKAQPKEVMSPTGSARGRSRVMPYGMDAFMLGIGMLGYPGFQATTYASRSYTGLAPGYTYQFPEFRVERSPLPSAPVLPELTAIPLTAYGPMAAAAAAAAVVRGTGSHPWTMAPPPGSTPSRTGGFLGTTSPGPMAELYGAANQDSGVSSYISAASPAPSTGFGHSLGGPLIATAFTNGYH
- run.description: nsRBNS (natural sequence RNA bind-n-seq); RBNS binding buffer (assumed for nsRBNS): 25 mM Tris pH 7.5, 150 mM KCl, 3 mM MgCl2, 0.01% Triton X-100, 500 ug/ml BSA, 20 U/ml SUPERase-In, 4 C; UNK is unkempt and MSI1 is Musashi-1; names of the RNAs are library labels; protein concentration not given here; high values mean tight binding
The full ranking holds about 5,800 sequences; the median of “enrichment r” is about 0.54, and the highest 2% start at about 16. This excerpt belongs to a sample that is enriched for the highest values.
result.type: binding signal (enrichment R)

{"binder": "chr7:39987650:39987751:+|CDS|ENSG00000065883|unk|total|mutant (ssRNA) RNA: GGGAGUUCUACAGUCCGACGAUCUCCCGGCAUUCAAGAUCUCGCCGCAGGCACAGAUUGUCCCGAUCCAGAAGUCGUCAUUCCCGUAUUUCUCCCCGCACACUAACUCUGAAGAGCCGCCUGGCAGCUGAAUUGAACAAGAAUCAACAGAGGAUUGAGCAUCA", "assay.value": 0.458}
{"binder": "chr9:19276226:19276327:+|CDS|ENSG00000137145|unk|total|mutant (ssRNA) RNA: GGGAGUUCUACAGUCCGACGAUCCUUUGUCGCCGCUGGUCUCACUGACACAUCUACUCUUUUGGAUCAAGAAAUAAAUCGUUCCGAUACUAAGUCAACUGGACCUAAAGCUCCAAUUACAGACAUUGCCAUUAUUAUCAAAUCCAACAGAGGAUUGAGCAUCA", "assay.value": 0.315}
{"binder": "ENSG00000070961:be:win_4001|3pUTR|ENSG00000070961|bound_else_gene|NA|bound_elsewhere_windowed (ssRNA) RNA: GGGAGUUCUACAGUCCGACGAUCAGUAAAACUGGGCAAGACAAAGAGCCCUGGAUCGUUGAAUUGAUAGUUUAAUUUCUGCUGUUGGCUGUUAAUAAUUUGGAUUAUUUAUGUUUAUAAAUGAUACAGAUCUGUUUACAAGGUCAACAGAGGAUUGAGCAUCA", "assay.value": 0.47}
{"binder": "chr7:137014887:137014989:+|CDS|ENSG00000181072|unk|FALSE|unique (ssRNA) RNA: GGGAGUUCUACAGUCCGACGAUCGCUACUUGGCUACUGAUUAGAGAACGCAAAAUGAAUAACUCAACAAACUCCUCUAACAAUAGCCUGGCUCUUACAAGUCCUUAUAAGACAUUUGAAGUGGUGUUUAUUGUCCUGGUGGCUCAACAGAGGAUUGAGCAUCA", "assay.value": 0.188}
{"binder": "chr4:75800632:75800752:+|CDS|ENSG00000138768|unk|total|mutant (ssRNA) RNA: GGGAGUUCUACAGUCCGACGAUCAAACAACUGAUUGAGAAGAGGAUUGGCAAAGAGAAUUUCACCGAGAAACCCGGAUUUAUCCGCAAACAUGAGUUGUAUUCCAGAGCAUCUCAGAAACCCCAGCCAAACUUUCCCAGUCCACAACAGAGGAUUGAGCAUCA", "assay.value": 0.541}
{"binder": "chr2:27041412:27041530:+|3pUTR|ENSG00000119777|msi1_unk|total|mutant (ssRNA) RNA: GGGAGUUCUACAGUCCGACGAUCACUUCAAAAUGCCCAGCCUGCCCCAAAUGCCUCUAAGCCCCUCCCUGUCCCCUCCCUUGCCGUCCUACUUCUUCCAACUUUCCAUUCCCCAUCAUGCUGGGGGUCUUGGUCACAAGGCUCCAACAGAGGAUUGAGCAUCA", "assay.value": 0.832}
{"binder": "chr3:98797769:98798349:-|3pUTR|ENSG00000057019|msi1|total|mutant (ssRNA) RNA: GGGAGUUCUACAGUCCGACGAUCUUGUUUUUGAUACCUCCUGGCAGCUUCCAUGUCACCACUUGUUCAUACCUGCCCAGAGCCCGUUUCCGACAUGGCAAAACCGAAAUCAUCUGUAAUUUAUCCGCUAACAAUGUAAAACCACAACAGAGGAUUGAGCAUCA", "assay.value": 0.808}
